molecular target: MKK4 (Homo sapiens); construct: S84/D399; host or cells: HEK-293; assay: KINOMEscan competition binding assay, MKK4; conditions: residual percent of control binding (PoC) at 100 nM
Sequence (P45985 84-399): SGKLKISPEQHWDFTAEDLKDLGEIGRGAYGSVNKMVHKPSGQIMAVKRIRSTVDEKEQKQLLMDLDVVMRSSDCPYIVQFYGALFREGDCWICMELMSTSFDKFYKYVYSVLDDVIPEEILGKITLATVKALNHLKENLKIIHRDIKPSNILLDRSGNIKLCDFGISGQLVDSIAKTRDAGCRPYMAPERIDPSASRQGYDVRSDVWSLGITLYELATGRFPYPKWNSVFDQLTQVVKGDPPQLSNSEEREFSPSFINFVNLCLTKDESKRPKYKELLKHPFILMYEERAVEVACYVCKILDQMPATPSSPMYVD
Measure Name: MKK4 [% Ctrl @ 100 nM

Before answering, review these 4 worked examples.
Molecule: CCCS(=O)(=O)Nc1ccc(C#N)c(C(=O)c2c[nH]c3ncc(-c4ccc(Cl)cc4)cc23)c1F [Example 61]
MKK4 [% Ctrl @ 100 nM: ◯ (30 ≤ PoC)

Molecule: O=C(c1ccc(F)c(NS(=O)(=O)CCC(F)(F)F)c1F)c1c[nH]c2ncc(-c3cnc(NC4CC4)nc3)cc12 [Example 182]
MKK4 [% Ctrl @ 100 nM: +++ (PoC < 1)

Molecule: O=C(c1c(F)ccc(NS(=O)(=O)CCCO)c1F)c1c[nH]c2ncc(-c3ccc(Cl)cc3)cc12 [Example 67]
MKK4 [% Ctrl @ 100 nM: ◯ (30 ≤ PoC)

Molecule: O=C(c1cccc(NS(=O)(=O)Cc2ccccc2)c1F)c1c[nH]c2ncc(-c3ccncc3)cc12 [Example 129]
MKK4 [% Ctrl @ 100 nM: +++ (PoC < 1)

Prompt: Give MKK4 [% Ctrl @ 100 nM; test system MKK4 (Homo sapiens); molecule CCCS(=O)(=O)Nc1ccc(F)c(C(=O)c2c[nH]c3ncc(-c4cnc[nH]4)cc23)c1F [Example 83]
Completion: +++ (PoC < 1)

---

target: BRaf (Homo sapiens, UniProt P15056); construct: purchased ProQinase GmbH, Freiburg, Germany (33PanQinase Assay Service); test: KINOMEscan competition binding assay, BRaf; conditions: ratio PoC (off-target)/PoC (MKK4)
Sequence (P15056 whole entry, species assumed): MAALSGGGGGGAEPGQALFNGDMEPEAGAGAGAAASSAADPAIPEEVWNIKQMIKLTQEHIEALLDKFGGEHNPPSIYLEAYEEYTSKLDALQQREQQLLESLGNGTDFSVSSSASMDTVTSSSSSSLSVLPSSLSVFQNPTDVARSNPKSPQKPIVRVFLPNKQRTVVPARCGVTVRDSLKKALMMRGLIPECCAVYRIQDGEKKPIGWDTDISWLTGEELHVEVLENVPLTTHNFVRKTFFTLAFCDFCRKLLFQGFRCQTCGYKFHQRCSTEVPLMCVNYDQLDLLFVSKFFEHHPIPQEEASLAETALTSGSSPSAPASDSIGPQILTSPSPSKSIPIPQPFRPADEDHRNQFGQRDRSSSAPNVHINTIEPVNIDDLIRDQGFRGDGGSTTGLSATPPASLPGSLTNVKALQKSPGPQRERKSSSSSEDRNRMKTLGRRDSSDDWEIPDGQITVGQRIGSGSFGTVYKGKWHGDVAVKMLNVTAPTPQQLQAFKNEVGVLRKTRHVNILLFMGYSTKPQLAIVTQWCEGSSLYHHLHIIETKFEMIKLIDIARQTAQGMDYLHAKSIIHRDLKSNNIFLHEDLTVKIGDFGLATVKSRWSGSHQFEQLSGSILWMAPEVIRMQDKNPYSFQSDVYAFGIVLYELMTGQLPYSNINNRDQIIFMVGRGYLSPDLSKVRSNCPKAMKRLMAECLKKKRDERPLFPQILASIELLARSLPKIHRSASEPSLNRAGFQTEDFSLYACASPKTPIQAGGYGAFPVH
Measure Name: selectivity based on % Ctrl @100 nM vs. Braf

Here's what some known entries look like.
Query Smiles: CCCS(=O)(=O)Nc1ccc(F)c(C(=O)c2c[nH]c3ncc(-c4nc[nH]n4)cc23)c1F
Recorded Value: ◯ (3 ≥ Ratio)
--
Query Smiles: CCCS(=O)(=O)Nc1ccc(F)c(C(=O)c2c[nH]c3ncc(-c4ccc([N+](=O)[O-])cc4)cc23)c1F
Recorded Value: + (10 ≥ ratio > 3)
--
Query Smiles: Cc1ccc(CS(=O)(=O)Nc2ccc(F)c(C(=O)c3c[nH]c4ncc(-c5ccc(Cl)cc5)cc34)c2F)cc1
Recorded Value: + (10 ≥ ratio > 3)
--
Query Smiles: CN(C)c1ncc(-c2cnc3[nH]cc(C(=O)c4ccc(F)c(NS(=O)(=O)CCC(F)(F)F)c4F)c3c2)cn1
Recorded Value: +++ (Ratio > 100)
--
Query Smiles: CS(=O)(=O)Nc1c(F)ccc(C(=O)c2c[nH]c3ncc(-c4ccncc4)cc23)c1F
Recorded Value: +++ (Ratio > 100)

Prompt: Look up selectivity based on % Ctrl @100 nM vs. Braf of `CCCS(=O)(=O)Nc1ccc(F)c(C(=O)c2c[nH]c3ncc(-c4ccc(N5CCN(C(C)=O)CC5)cc4)cc23)c1F` and report it.
Completion: ◯ (3 ≥ Ratio)

---

molecular target: BRaf (Homo sapiens, UniProt P15056); construct: purchased ProQinase GmbH, Freiburg, Germany (33PanQinase Assay Service); assay: KINOMEscan competition binding assay, BRaf; details: ratio PoC (off-target)/PoC (MKK4)
Measure Name: selectivity based on % Ctrl @100 nM vs. Braf

The cases that follow already have their selectivity based on % Ctrl @100 nM vs. Braf on record.
Compound: CCCS(=O)(=O)Nc1ccc(F)c(C(=O)c2c[nH]c3ncc(-c4cccc(Cl)c4)cc23)c1F [Example 32]
Recorded Value: ◯ (3 ≥ Ratio)
//
Compound: CCCS(=O)(=O)Nc1c(F)ccc(C(=O)c2c[nH]c3ncc(-c4ccc(N5CCC5)nc4)cc23)c1F [Example 162]
Recorded Value: +++ (Ratio > 100)
//
Compound: O=C(c1ccc(F)c(NS(=O)(=O)CCC(F)(F)F)c1F)c1c[nH]c2ncc(-c3cnc(N4CCC4)nc3)cc12 [Example 180]
Recorded Value: +++ (Ratio > 100)
//
Compound: CCCS(=O)(=O)Nc1ccc(F)c(C(=O)c2c[nH]c3ncc(-c4cccnn4)cc23)c1F [Example 48]
Recorded Value: ◯ (3 ≥ Ratio)

Prompt: Indicate its recorded selectivity based on % Ctrl @100 nM vs. Braf; the compound in question is O=C(c1cccc(NS(=O)(=O)Cc2ccccc2)c1F)c1c[nH]c2ncc(-c3ccncc3)cc12 [Example 129]
Completion: +++ (Ratio > 100)

---

molecular target: JNK1 (Homo sapiens); experiment: KINOMEscan competition binding assay, JNK1; set-up: M1/Q384; host or cells: HEK-293; conditions: ratio PoC (off-target)/PoC (MKK4)
Sequence (P45983 1-384 isoform P45983-2): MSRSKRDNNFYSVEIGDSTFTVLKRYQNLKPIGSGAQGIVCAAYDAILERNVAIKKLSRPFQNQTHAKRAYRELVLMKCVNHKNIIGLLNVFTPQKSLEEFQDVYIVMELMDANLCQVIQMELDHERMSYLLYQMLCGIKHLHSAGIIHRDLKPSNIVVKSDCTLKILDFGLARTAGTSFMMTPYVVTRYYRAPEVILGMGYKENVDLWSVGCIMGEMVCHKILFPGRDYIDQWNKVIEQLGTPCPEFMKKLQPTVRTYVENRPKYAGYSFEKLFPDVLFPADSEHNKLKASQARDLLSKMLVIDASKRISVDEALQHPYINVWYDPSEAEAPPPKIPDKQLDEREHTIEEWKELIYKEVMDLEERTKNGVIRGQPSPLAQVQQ
Measure Name: selectivity based on % Ctrl @100 nM vs. JNK1

Molecule: Cc1cc(F)ccc1-c1cnc2[nH]cc(C(=O)c3cccc(NS(=O)(=O)Cc4ccccc4)c3F)c2c1
Recorded Value: ++ (100 ≥ ratio > 10)
//
Molecule: Cc1cc(F)ncc1-c1cnc2[nH]cc(C(=O)c3ccc(F)c(NS(=O)(=O)CCC(F)(F)F)c3F)c2c1
Recorded Value: +++ (Ratio > 100)
//
Molecule: O=C(c1c(F)ccc(NS(=O)(=O)Cc2ccccc2)c1F)c1c[nH]c2ncc(-c3ccc(OCC(O)CO)cc3Cl)cc12 (centres unmarked)
Recorded Value: ++ (100 ≥ ratio > 10)
//
Molecule: CCCS(=O)(=O)Nc1c(F)ccc(C(=O)c2c[nH]c3ncc(-c4ccc(N5CCC5)nc4)cc23)c1F
Recorded Value: +++ (Ratio > 100)

---

biological target: MKK4 (Homo sapiens, UniProt P45985); construct: purchased ProQinase GmbH, Freiburg, Germany (33PanQinase Assay Service); assay: 33PanQinase enzyme assay, MKK4; assay type: biochemical; conditions: single concentration 100 nM; read-out: Potency MKK4 (residual activity, assay at single concentration)
Sequence (P45985 whole entry): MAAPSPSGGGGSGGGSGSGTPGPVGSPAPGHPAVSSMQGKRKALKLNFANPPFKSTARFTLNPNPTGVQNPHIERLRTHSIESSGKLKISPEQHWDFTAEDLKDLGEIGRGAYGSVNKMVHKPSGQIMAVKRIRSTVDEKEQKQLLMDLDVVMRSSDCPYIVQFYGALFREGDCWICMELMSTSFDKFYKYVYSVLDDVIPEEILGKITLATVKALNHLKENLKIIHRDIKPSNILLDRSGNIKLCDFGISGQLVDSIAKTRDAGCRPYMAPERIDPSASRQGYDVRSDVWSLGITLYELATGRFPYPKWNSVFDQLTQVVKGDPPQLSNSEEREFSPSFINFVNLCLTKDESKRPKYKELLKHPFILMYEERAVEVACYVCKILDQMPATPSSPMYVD
Provide the reported remaining activity at 0.1 µM of each item.

// solved cases for remaining activity at 0.1 µM follow
Query Smiles: CCCS(=O)(=O)Nc1ccc(C#N)c(C(=O)c2c[nH]c3ncc(-c4ccc(Cl)cc4)cc23)c1C#N
remaining activity at 0.1 µM: > 90%
--
Query Smiles: CCCS(=O)(=O)Nc1ccc(F)c(C(=O)c2c[nH]c3ncc(-c4ccc5ccoc5c4)cc23)c1F
remaining activity at 0.1 µM: 70 to 90%
--
Query Smiles: CCCS(=O)(=O)Nc1ccc(Br)c(C(=O)c2c[nH]c3ncc(-c4ccc(Cl)cc4)cc23)c1Br
remaining activity at 0.1 µM: 70 to 90%

Please supply remaining activity at 0.1 µM for each of the following items, keeping them in order.
1. CCCS(=O)(=O)Nc1c(Cl)ccc(C(=O)c2c[nH]c3ncc(-c4ccc(Cl)cc4)cc23)c1F
2. CCCS(=O)(=O)Nc1ccc(C#N)c(C(=O)c2c[nH]c3ncc(-c4ccc(Cl)cc4)cc23)c1F
3. CCCS(=O)(=O)Nc1cccc(C(=O)c2c[nH]c3ncc(-c4ccc(Cl)cc4)cc23)c1C#N
4. O=C(c1c(F)ccc(NS(=O)(=O)CCCO)c1F)c1c[nH]c2ncc(-c3ccc(Cl)cc3)cc12

Completion:
1. 70 to 90%
2. > 90%
3. 50 to 70%
4. > 90%

---

target: BRaf (Homo sapiens, UniProt P15056); construct: purchased ProQinase GmbH, Freiburg, Germany (33PanQinase Assay Service); assay: KINOMEscan competition binding assay, BRaf; details: ratio PoC (off-target)/PoC (MKK4)
Measure Name: selectivity based on % Ctrl @100 nM vs. Braf

Query Smiles: CCCNS(=O)(=O)c1cccc(C(=O)c2c[nH]c3ncc(Br)cc23)c1
Recorded Value: ◯ (3 ≥ Ratio)
//
Query Smiles: CNc1ncc(-c2cnc3[nH]cc(C(=O)c4ccc(F)c(NS(=O)(=O)CCC(F)(F)F)c4F)c3c2)cn1
Recorded Value: +++ (Ratio > 100)
//
Query Smiles: O=C(c1ccc(F)c(NS(=O)(=O)CCC(F)(F)F)c1F)c1c[nH]c2ncc(-c3cnc(NC4CC4)nc3)cc12
Recorded Value: +++ (Ratio > 100)
//
Query Smiles: CCCS(=O)(=O)Nc1ccc(F)c(C(=O)c2c[nH]c3ncc(-c4ccc5ccoc5c4)cc23)c1F
Recorded Value: ◯ (3 ≥ Ratio)

---

molecular target: UniProt:P45983; assay: KINOMEscan competition binding assay, JNK1; parameters: M1/Q384; host or cells: HEK-293; settings: ratio PoC (off-target)/PoC (MKK4)
Measure Name: selectivity based on % Ctrl @100 nM vs. JNK1

Sample answers from the record:
Query Smiles: CS(=O)(=O)Nc1c(F)ccc(C(=O)c2c[nH]c3ncc(-c4ccncc4)cc23)c1F
Recorded Value: +++ (Ratio > 100)
--
Query Smiles: CCCS(=O)(=O)Nc1ccc(F)c(C(=O)c2c[nH]c3ncc(-c4cc[nH]c4)cc23)c1F
Recorded Value: ++ (100 ≥ ratio > 10)
--
Query Smiles: CCCS(=O)(=O)Nc1ccc(F)c(C(=O)c2c[nH]c3ncc(-c4ccc(N)nc4)cc23)c1F
Recorded Value: +++ (Ratio > 100)
--
Query Smiles: CNc1ncc(-c2cnc3[nH]cc(C(=O)c4ccc(F)c(NS(=O)(=O)CCC(F)(F)F)c4F)c3c2)cn1
Recorded Value: +++ (Ratio > 100)
--
Query Smiles: COc1ccc(-c2cnc3[nH]cc(C(=O)c4c(F)ccc(NS(=O)(=O)Cc5ccccc5)c4F)c3c2)cc1
Recorded Value: ++ (100 ≥ ratio > 10)

Attention now turns to another entry.
Prompt: Kindly indicate its recorded selectivity based on % Ctrl @100 nM vs. JNK1. Item: `CCCS(=O)(=O)Nc1ccc(F)c(C(=O)c2c[nH]c3ncc(-c4ccccc4F)cc23)c1F`
Completion: ++ (100 ≥ ratio > 10)
